Biological target: T1, mouse SPNS2 (mouse, UniProt Q91VM4 1-549)
T1 sequence: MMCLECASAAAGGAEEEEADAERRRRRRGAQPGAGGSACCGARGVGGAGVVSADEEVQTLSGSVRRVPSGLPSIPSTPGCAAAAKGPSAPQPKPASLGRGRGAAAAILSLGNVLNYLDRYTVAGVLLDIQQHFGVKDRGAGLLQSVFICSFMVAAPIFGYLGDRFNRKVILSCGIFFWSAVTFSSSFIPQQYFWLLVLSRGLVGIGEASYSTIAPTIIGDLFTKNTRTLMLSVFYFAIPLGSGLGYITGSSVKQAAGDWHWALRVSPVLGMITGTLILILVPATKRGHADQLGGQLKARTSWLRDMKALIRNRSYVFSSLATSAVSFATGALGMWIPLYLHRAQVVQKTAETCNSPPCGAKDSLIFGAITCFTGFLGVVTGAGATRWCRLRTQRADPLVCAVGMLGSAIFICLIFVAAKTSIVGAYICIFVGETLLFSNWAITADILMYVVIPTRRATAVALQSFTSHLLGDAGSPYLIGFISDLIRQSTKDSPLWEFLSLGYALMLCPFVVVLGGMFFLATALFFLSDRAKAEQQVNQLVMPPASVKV
Test: cell-based or functional assay
Give measured pIC50, S1P transport inhibition (S1PR3 Ca2+ FLIPR bioassay) for each item. Keep answers brief.

Recorded pIC50, S1P transport inhibition (S1PR3 Ca2+ FLIPR bioassay) (binder 33-0503E (antibody, IgG2b, V domains shown) VH: EVQLVESGGGLVRPGGSMKLSCGASGFIFDNYYMTWVRQAPTKGLEWVASISSSGGNTYYRDSVRGRFTISRDNAGNTLSLQMGSLRAEDTATYHCAKEGYRGRYFDYWGQGVMVTVSS VL: QVVLTQPNSVSTNLGSTVKLSCKRTTGNIGSNYVNWYQQHEGRSPTTMIYRDDERPDGVPDRFSGSIDRSSNSALLTINNVQTEDEAEYFCQSYSSGIIFGGGTKLTVL ): 7.5 pIC50 (M)

Lab note: 64-0807A (antibody, IgG2b, V domains shown) VH: EVQVVESGGGLVQPGRSMKLSCAALGFTFRDYYMAWVRQTPTKGLEWVAAISTGGGNTYYRDSVKGRFTISRDNAKSTLYLQMDSLRSDDTATYYCARNPYGNYFDYWGQGVMVTVSS VL: QFVLSQPNSVSTNLGSTVKLSCKRSTGNIGSNYVHWYQRHEGRSPTTLIYRDDKRPNGVPDRFSGSIDRSSNSALLTINNVQTEDEADYFCQSYSGGMYLFGGGTKLTVL gave pIC50, S1P transport inhibition (S1PR3 Ca2+ FLIPR bioassay) of 7.6 pIC50 (M)

Entry 65-0810G (antibody, IgG2b, V domains shown) VH: EVHLVESGGGLVQPGRSMKLSCTASGFTFNNYYMAWVRQAPTKGLEWVASISTGGGYTYYRDSVKGRFTISRDNTGNTLYLQMDSLRSEDTATYYCARCWELPYWGQGVMVTVSS VL: QFVLTQPNSVSTNLGSTVKLSCRRSSGNIGNNYVNWYRQHEGRSPTTMIYRDDTRPDGVPNRFSGSIDRSSNSALLTINNVRPEDEAYYFCQSYSGSIYIFGGGTKLTVL , pIC50, S1P transport inhibition (S1PR3 Ca2+ FLIPR bioassay) reported as 7.6 pIC50 (M)

The measured pIC50, S1P transport inhibition (S1PR3 Ca2+ FLIPR bioassay) associated with 53-0707E (antibody, IgG2b, V domains shown) VH: EVQLQQSGAELVRPRTSVKLSCKVSGDSITRYYVHFVKQRPGQGLEWIGRIDPEDDTTKYSEKFKKKATLTADASSNTAYLIFSGLTSEDTATYFCSTLTGLDYWGQGVMVTVSS VL: DIQMTQSPPVLSTSVGDRVTLRCKASQNVHSKLDWYQQKHGEAPKLLIYYTHNLQTGIPSRFSGSGSGTDYTLTISSLQPEDVATYYCFQYYSGWTFGGGTKLEMKR reads 7.6 pIC50 (M)

Lab note: measured pIC50, S1P transport inhibition (S1PR3 Ca2+ FLIPR bioassay) of 50-0704C (antibody, IgG2b, V domains shown) VH: EVQLVGSGGGLVQPGRSMKLSCEASGFTFSNHYMAWVRQAPTKGLEWVATISTGGGNTYYRDSVKGRFTISRDNARSTLSLQMDSLRSEDTATYYCARQDYSNYMGGFAYWGQGTLVTVSS VL: QFVLTQPNSVSTNLGSTVKLSCTRSIGNIGNNYVNWYKQYEGRSPTTMIYRDDERPDGVPDRFSGSIDRSSNSALLTINSVQTEDEADYFCQSFSSGIFIFGGGTKLTVL was 7.6 pIC50 (M)
